Tested on: VchCAST RNA-guided transposition machinery (E. coli BL21(DE3) host, lacZ target)
PROCEDURE DETAILS: relative integration efficiency (T-RL orientation) vs wild-type transposon end (log2 (normalized fold change)); transposon end mutated: right end (5 bp flank + 75 bp right end); higher = more efficient transposition
Would you mind telling me the reported relative integration efficiency (log2) of each entry?
Please give only the number in your answer, with no unit.

Please state recorded relative integration efficiency (log2) (tested on VchCAST RNA-guided transposition machinery (E. coli BL21(DE3) host, lacZ target)) of `ACATTTGTTGATACAACCATAAAATGATAATTACACCCATAAATTGATAATTATCACACCCATAAATTGATATTGCCTCTGGCTAGCATTATACCTAGGACTGAGCTAGCTGTCAACGCACCGACAC`
-2.99

Please state recorded relative integration efficiency (log2) (tested on VchCAST RNA-guided transposition machinery (E. coli BL21(DE3) host, lacZ target)) of `ACATTTGTTGATACCACCATCAAATGATAATTCCACCCATACATTGATAATTATCACACCCAATTTAACTATAACGCTCTGATCATAGTCAGACCAACATTGCTACGACCCGTATTCGCACCGACAC`
-4.88

Please state recorded relative integration efficiency (log2) (tested on VchCAST RNA-guided transposition machinery (E. coli BL21(DE3) host, lacZ target)) of `ACATTTGTTGATACAACCATAAAATGATAATTACACCCATAAATTGATAATTATCAACAAACGCCCGGTCGCGGTAAGAGGATCATAGTCAGACCAACATTGCTACGACCCGTATTCGCACCGACAC`
-0.451

Please state recorded relative integration efficiency (log2) (tested on VchCAST RNA-guided transposition machinery (E. coli BL21(DE3) host, lacZ target)) of `ACATTTGTTGATACACCCATAAATTGATAATTACACCCATAAATTGATATTGCTCACACCCATAAATTGATATTGCCTCTGATCATAGTCAGACCAACATTGCTACGACCCGTATTCGCACCGACAC`
-0.538

Please state recorded relative integration efficiency (log2) (tested on VchCAST RNA-guided transposition machinery (E. coli BL21(DE3) host, lacZ target)) of `ACATTGGTGGATACAACCATAAAATGATAATTACACCCATAAATTCATCATTATCACACCCAATTTAACTATAACGCTCTGATCATAGTCAGACCAACATTGCTACGACCCGTATTCGCACCGACAC`
-7.11
